The reported measurements were obtained from ChEMBL document CHEMBL4689842.

# Population Normal (%) annotations
system: HEK-293T; test: Multiplex assay against HEK293T; type: toxicity, cell-based; conditions: human, 24 h, 1 µM, compound concentration 1 uM, replicate 1
# value in %; strip the unit string

Guide cases for Population Normal (%), answers given:
>  <compound>
CC(C)(O)CNc1ncc(-c2ccnc(Nc3ccnc(Cl)c3)n2)c(CC2CC2)n1

>  <measured quantity>
Population Normal (%)

>  <observed measurement>
84

$$$$
>  <compound>
Cl.N#Cc1ccc2[nH]cc(CCCCN3CCN(c4ccc5oc(C(N)=O)cc5c4)CC3)c2c1 [VILAZODONE HYDROCHLORIDE]

>  <measured quantity>
Population Normal (%)

>  <observed measurement>
93

$$$$
>  <compound>
COc1cccc([C@@H](C)NCCCc2ccccc2Cl)c1.Cl [TECALCET HYDROCHLORIDE]

>  <measured quantity>
Population Normal (%)

>  <observed measurement>
90

$$$$
>  <compound>
C=CC(=O)Nc1ccc2ncnc(Nc3ccc(OCc4cccc(F)c4)c(Cl)c3)c2c1.Cc1ccc(S(=O)(=O)O)cc1

>  <measured quantity>
Population Normal (%)

>  <observed measurement>
84

$$$$

Lab note: next compound to report on.
Query: Entry C=CC(=O)Nc1cccc(C(=O)Nc2ccc(Nc3cc(-c4[nH]c(SC)nc4C)ccn3)cc2)c1 has what Population Normal (%)?
Result: 82

###

# Population Normal (%) annotations
test system: Fibroblast; assay: Multiplex assay against human fibroblast; assay type: toxicity, cell-based; settings: 12 h, 10 µM, compound concentration 10 uM, replicate 2
# value in %; strip the unit string

>  <structure as smiles>
COc1ncc(-c2ccc3nccc(-c4ccnnc4)c3c2)cc1NS(=O)(=O)c1ccc(F)cc1F

>  <observed measurement>
92

$$$$

Query: Given the entry C=CC(=O)Nc1ccc2ncnc(Nc3ccc(OCc4cccc(F)c4)c(Cl)c3)c2c1.Cc1ccc(S(=O)(=O)O)cc1 , what Population Normal (%) was observed with Fibroblast?
Result: 89

Query: Given the entry Cc1cc(C)cc(-c2cnc3cc(Cl)c(-c4cccc(O)c4)cc3c2OCCCN)c1 , what Population Normal (%) was observed with Fibroblast?
Result: 91

###

# Population Hoechst High Intensity Objects (%) annotations
tested on: Fibroblast; experiment: Multiplex assay against human fibroblast; assay type: toxicity, cell-based; settings: 24 h, 1 µM, compound concentration 1 uM, replicate 2
# value in %; strip the unit string

Guide cases for Population Hoechst High Intensity Objects (%), answers given:
>  <compound>
C=CC(=O)Nc1ccc2ncnc(Nc3ccc(OCc4cccc(F)c4)c(Cl)c3)c2c1.Cc1ccc(S(=O)(=O)O)cc1

>  <reading unit>
%

>  <observed measurement>
5

$$$$
>  <compound>
Cc1[nH]c(/C=C2\C(=O)Nc3ccc(S(=O)(=O)N(C)c4cccc(Cl)c4)cc32)c(C)c1C(=O)N1CCN(C)CC1

>  <reading unit>
%

>  <observed measurement>
8

$$$$
>  <compound>
CN1CCN(CCOc2cc(OC3CCOCC3)c3c(Nc4c(Cl)ccc5c4OCO5)ncnc3c2)CC1

>  <reading unit>
%

>  <observed measurement>
8

$$$$

Query: Entry CC(C)NCC(O)COc1ccc(CCOCC2CC2)cc1.Cl (stereo not given) [BETAXOLOL HYDROCHLORIDE] has what Population Hoechst High Intensity Objects (%)?
Result: 5

Query: Entry COc1cccc([C@@H](C)NCCCc2ccccc2Cl)c1.Cl [TECALCET HYDROCHLORIDE] has what Population Hoechst High Intensity Objects (%)?
Result: 8

###

test system: HEK-293T; test: Multiplex assay against HEK293T; assay type: toxicity, cell-based; details: human, 48 h, 10 µM, compound concentration 10 uM, replicate 1
Assign 1 (yes) to entries whose Population Pyknosed Nuclei (%) meets or exceeds 70%; assign 0 (no) to the rest.

Worked examples follow.
>  <compound>
NC(=O)Nc1cc(-c2cccc(F)c2)sc1C(=O)N[C@H]1CCCNC1 [AZD-7762]

>  <assigned category>
0 (no)

$$$$
>  <compound>
CN1CCCC(n2nc(Cc3ccc(Cl)cc3)c3ccccc3c2=O)CC1.Cl (stereo unspecified) [AZELASTINE HYDROCHLORIDE]

>  <assigned category>
1 (yes)

$$$$
>  <compound>
Cc1[nH]c(/C=C2\C(=O)Nc3ccc(S(=O)(=O)N(C)c4cccc(Cl)c4)cc32)c(C)c1C(=O)N1CCN(C)CC1

>  <assigned category>
0 (no)

$$$$

Query: Answer whether Population Pyknosed Nuclei (%) of Cc1nc(-c2ccc(-c3ccc(C(=O)N4CCc5cc6c(cc54)C4(CCN(C)CC4)CO6)cc3)c(C)c2)no1 [SB-224289] is greater than or equal to 70%.
Result: 1 (yes)

Query: Answer whether Population Pyknosed Nuclei (%) of C[C@@H](NCCCc1cccc(C(F)(F)F)c1)c1cccc2ccccc12.Cl [CINACALCET HYDROCHLORIDE] is greater than or equal to 70%.
Result: 0 (no)

###

# Population Fragmented Nuclei (%) annotations
tested on: Fibroblast; assay: Multiplex assay against human fibroblast; format: toxicity, cell-based; conditions: 12 h, 1 µM, compound concentration 1 uM, replicate 1
# value in %; strip the unit string

>  <structure as smiles>
NC(=O)Nc1cc(-c2cccc(F)c2)sc1C(=O)N[C@H]1CCCNC1

>  <measured quantity>
Population Fragmented Nuclei (%)

>  <observed measurement>
20

$$$$
>  <structure as smiles>
C=CC(=O)Nc1ccc2ncnc(Nc3ccc(OCc4cccc(F)c4)c(Cl)c3)c2c1.Cc1ccc(S(=O)(=O)O)cc1

>  <measured quantity>
Population Fragmented Nuclei (%)

>  <observed measurement>
25

$$$$
>  <structure as smiles>
Cc1c(-c2ccc(O)cc2)n(Cc2ccc(OCCN3CCCCCC3)cc2)c2ccc(O)cc12

>  <measured quantity>
Population Fragmented Nuclei (%)

>  <observed measurement>
27

$$$$

Lab note: next compound to report on.
Query: Entry CNc1nc(NCc2ccc(NS(C)(=O)=O)cc2Cl)cc(-c2ccccn2)n1 has what Population Fragmented Nuclei (%)?
Result: 22

###

tested on: HEK-293T; test: Multiplex assay against HEK293T; format: toxicity, cell-based; settings: human, 24 h, 1 µM, compound concentration 1 uM, replicate 2
Threshold 5%: Population Fragmented Nuclei (%) strictly smaller gives t, otherwise f.

Query: hey, is Population Fragmented Nuclei (%) for c1cn2cc(-c3ccc4cn[nH]c4c3)nc(Nc3ccc(N4CCOCC4)cc3)c2n1 lower than 5% or not?
Result: t

Query: hey, is Population Fragmented Nuclei (%) for CCN(CC)CCCCNc1ncc2cc(-c3cc(OC)cc(OC)c3)c(NC(=O)NC(C)(C)C)nc2n1 lower than 5% or not?
Result: f

Query: hey, is Population Fragmented Nuclei (%) for C=CC(=O)Nc1ccc2ncnc(Nc3ccc(OCc4cccc(F)c4)c(Cl)c3)c2c1.Cc1ccc(S(=O)(=O)O)cc1 lower than 5% or not?
Result: f

Query: hey, is Population Fragmented Nuclei (%) for CN1CCCC(n2nc(Cc3ccc(Cl)cc3)c3ccccc3c2=O)CC1.Cl (stereo not drawn) [AZELASTINE HYDROCHLORIDE] lower than 5% or not?
Result: f

Query: hey, is Population Fragmented Nuclei (%) for Cc1csc2c(N[C@@H](C)CN3CCN(S(=O)(=O)c4ccc(Cl)c(Cl)c4)CC3)ncnc12 lower than 5% or not?
Result: f

Query: hey, is Population Fragmented Nuclei (%) for Cn1cc(-c2[nH]c3cc(NC(=O)[C@H](N)C4CCCCC4)cc4c3c2C=NNC4=O)cn1 lower than 5% or not?
Result: f

Query: hey, is Population Fragmented Nuclei (%) for CN1CCN(CCOc2cc(OC3CCOCC3)c3c(Nc4c(Cl)ccc5c4OCO5)ncnc3c2)CC1 lower than 5% or not?
Result: t

Query: hey, is Population Fragmented Nuclei (%) for CNc1nc(NCc2ccc(NS(C)(=O)=O)cc2Cl)cc(-c2ccccn2)n1 lower than 5% or not?
Result: t

Query: hey, is Population Fragmented Nuclei (%) for Cc1cc(C)cc(-c2cnc3cc(Cl)c(-c4cccc(O)c4)cc3c2OCCCN)c1 lower than 5% or not?
Result: f

Query: hey, is Population Fragmented Nuclei (%) for Cc1nc(-c2cn3c(n2)-c2ccc(-c4cnn(C(C)(C)C(N)=O)c4)cc2OCC3)n(C(C)C)n1 lower than 5% or not?
Result: t

Query: hey, is Population Fragmented Nuclei (%) for CN(C)C(=O)N[C@H]1CC[C@H](CCN2CCN(c3cccc(Cl)c3Cl)CC2)CC1.Cl [CARIPRAZINE HYDROCHLORIDE] lower than 5% or not?
Result: t

###

system: HEK-293T; experiment: Incucyte cell viability with HEK293T; type: toxicity, cell-based; settings: human, 18 h, 10 µM, compound concentration 10 uM, replicate number 1, timepoint 18 hours; further: filed as whole numbers so only -1 and 0 and 1 occur
measured quantity: Growth Rate
API note: the answer field is a bare number with no unit suffix.

Guide cases for Growth Rate, answers given:
>  <compound>
CC1(C)CCC(C)(C)c2cc(C3(c4ccc(C(=O)O)cc4)OCCO3)ccc21

>  <experimental system>
HEK-293T

>  <measured quantity>
Growth Rate

>  <observed measurement>
1

$$$$
>  <compound>
CC(C)S(=O)(=O)c1ccc2nccc(Nc3ccc4scnc4c3)c2c1

>  <experimental system>
HEK-293T

>  <measured quantity>
Growth Rate

>  <observed measurement>
0

$$$$

Lab note: next compound to report on.
Query: Entry Cn1c(-c2csc(C3CCN(CC4=NC5N=CC=CC5N4)CC3)n2)nc2ccccc21 (stereo not drawn) [BAY-070] has what Growth Rate?
Result: 0
